The following compounds were reported with IC50 values on Renin (Rattus norvegicus) in different studies.
Target: Renin (Rattus norvegicus)
Sequence (P08424 whole entry): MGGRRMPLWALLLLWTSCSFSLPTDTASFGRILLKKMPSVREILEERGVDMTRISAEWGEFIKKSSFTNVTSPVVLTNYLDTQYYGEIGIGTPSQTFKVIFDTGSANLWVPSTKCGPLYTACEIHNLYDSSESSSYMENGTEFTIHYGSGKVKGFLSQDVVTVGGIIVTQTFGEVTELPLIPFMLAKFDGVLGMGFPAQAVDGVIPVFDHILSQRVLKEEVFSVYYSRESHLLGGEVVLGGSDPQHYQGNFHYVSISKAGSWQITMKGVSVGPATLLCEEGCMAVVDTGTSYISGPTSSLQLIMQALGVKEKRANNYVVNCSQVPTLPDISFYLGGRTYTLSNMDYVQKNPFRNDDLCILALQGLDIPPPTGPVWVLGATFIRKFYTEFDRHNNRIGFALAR

Answered examples (4):
smiles=CNC(=O)[C@H](CC(C)C)C[C@H](O)[C@H](CC1CCCCC1)NC(=O)c1cnc2ccccc2c1 system_name="Renin (Rattus norvegicus)" recorded_endpoint=IC50 result="> 10 µM"
smiles=CCCCNC(=O)[C@H](C)C[C@H](O)[C@@H](N)CN(C(=O)c1ccc(CC)c(OCCCOC)c1)C(C)C system_name="Renin (Rattus norvegicus)" recorded_endpoint=IC50 result="> 20 µM"
smiles=C=C(Cl)C[C@H](C[C@H](O)[C@H](CC1CCCCC1)NC(=O)c1cc2cc(Cl)ccc2[nH]1)C(=O)NC system_name="Renin (Rattus norvegicus)" recorded_endpoint=IC50 result="0.041 µM"
smiles=CCCCNC(=O)[C@H](C)C[C@H](O)[C@@H](N)CN(C(=O)c1ccc(Br)c(OCCCOC)c1)C(C)C system_name="Renin (Rattus norvegicus)" recorded_endpoint=IC50 result="> 20 µM"

## Input Form field: reported IC50 of "CCCCNC(=O)[C@H](C)C[C@H](O)[C@@H](N)CN(C(=O)c1ccc(OC)c(OCCCOC)c1)C(C)C"
## Output > 20 µM

## Input Form field: reported IC50 of "COCCCCn1c(C(=O)N(CC(C)C)[C@@H]2CNC[C@H](C(=O)N3CCOCC3)C2)nc2ccccc21"
## Output 0.31 µM
